Where do the numbers come from? From ChEMBL document CHEMBL5291721.

Here we list molecules with their recorded AC50 when tested on UniProt:P41145.
Sequence (P41145 whole entry): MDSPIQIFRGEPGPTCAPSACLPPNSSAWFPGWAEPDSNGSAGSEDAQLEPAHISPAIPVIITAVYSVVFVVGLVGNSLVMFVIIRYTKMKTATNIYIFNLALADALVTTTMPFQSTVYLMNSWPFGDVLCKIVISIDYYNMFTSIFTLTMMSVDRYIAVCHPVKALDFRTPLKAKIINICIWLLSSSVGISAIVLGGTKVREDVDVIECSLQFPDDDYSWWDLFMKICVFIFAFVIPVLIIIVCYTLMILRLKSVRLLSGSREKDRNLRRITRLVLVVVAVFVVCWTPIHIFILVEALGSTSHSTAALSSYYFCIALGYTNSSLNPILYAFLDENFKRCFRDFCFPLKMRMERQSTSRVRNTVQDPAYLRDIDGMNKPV

MOLECULE: N#Cc1ccccc1-c1cc(-c2ccccn2)cn(-c2ccccc2)c1=O
AC50: > 30 µM
//
MOLECULE: COc1ccnc(C[S+]([O-])c2nc3ccc(OC(F)F)cc3[nH]2)c1OC (stereo not given)
AC50: > 10 µM
//
MOLECULE: CC(C)C[C@H](CN)CC(=O)O
AC50: > 30 µM
//
MOLECULE: Nc1ccn([C@@H]2O[C@H](CO)[C@@H](O)C2(F)F)c(=O)n1
AC50: > 10 µM
//
MOLECULE: COc1cc2c(Nc3ccc(Br)cc3F)ncnc2cc1OCC1CCN(C)CC1
AC50: > 30 µM
